# Test system: Bacillus cereus ATCC 11778
# Method Description: Antibacterial microdilution MIC, B. cereus
# Assay type: cell-based
# Measurement Conditions: ATCC11778, microdilution method, ATCC 11778, read-out: MIC B. cereus
Could you please report measured MIC for the items listed next?

Reference set, count: 2
>  <Compound>
C=CC(C)(C)c1c2c(c(O)c3c(=O)c4ccc(OCC)c(OCC)c4oc13)C=CC(C)(C)O2

>  <MIC>
> 128 µg/mL

$$$$
>  <Compound>
C=CC(C)(C)c1c2c(c(O)c3c(=O)c4ccc(O)c(OCC)c4oc13)C=CC(C)(C)O2

>  <MIC>
> 128 µg/mL

$$$$

Please give MIC, item by item, for the list that follows.
1. C=CC(C)(C)c1c2c(c(O)c3c(=O)c4ccc(OC(C)=O)c(OC(C)=O)c4oc13)C=CC(C)(C)O2
2. COc1ccc2c(=O)c3c(O)c4c(cc3oc2c1OC)OC(C)C4(C)C (stereo not shown)
3. C=CC(C)(C)c1c2c(c(O)c3c(=O)c4ccc(OC)c(OC)c4oc13)C=CC(C)(C)O2
4. CC1Oc2c(c(O)c3c(=O)c4ccc(O)c(O)c4oc3c2Br)C1(C)C (stereo not shown)
5. C=CC(C)(C)c1c2c(c(O)c3c(=O)c4ccc(O)c(OC)c4oc13)C=CC(C)(C)O2
6. CC1Oc2cc3oc4c(OS(C)(=O)=O)c(OS(C)(=O)=O)ccc4c(=O)c3c(O)c2C1(C)C (stereo not shown)
7. CC(=O)Oc1ccc2c(=O)c3c(O)c4c(cc3oc2c1OC(C)=O)OC(C)C4(C)C (stereo not shown)
8. C=CC(C)(C)c1c2c(c(OC(=O)CCCC)c3c(=O)c4ccc(OC(=O)CCCC)c(OC(=O)CCCC)c4oc13)C=CC(C)(C)O2

RESULT:
["16 µg/mL", "> 128 µg/mL", "> 128 µg/mL", "4 µg/mL", "> 128 µg/mL", "> 128 µg/mL", "4 µg/mL", "> 128 µg/mL"]

Answer for every listed entry: what is its MIC? The entries follow.
1. CCOc1ccc2c(=O)c3c(O)c4c(cc3oc2c1OCC)OC(C)C4(C)C (stereo not shown)
2. C=CC(C)(C)c1c2c(c(O)c3c(=O)c4ccc(OS(C)(=O)=O)c(OS(C)(=O)=O)c4oc13)C=CC(C)(C)O2
3. CCCCC(=O)Oc1ccc2c(=O)c3c(OC(=O)CCCC)c4c(cc3oc2c1OC(=O)CCCC)OC(C)C4(C)C (stereo not shown)

RESULT:
["> 128 µg/mL", "> 128 µg/mL", "16 µg/mL"]
